Test system: RPMI-8226 leukemia
TEST: NCI tumour cell line growth inhibition, 48 h
Here the recorded GI50 is given for each entry.

1) COc1cc(-c2cc(C(=O)N3CCN(C(=O)c4ccccc4NCc4ccco4)CC3)nc3cc(-c4ccccc4)nn23)cc(OC)c1OC :: 3.61 µM

Query: What value of GI50 has been recorded for this entry: `O=C(c1cccs1)c1c(C(F)(F)F)n([O-])c2ccc(C(F)(F)F)cc2[n+]1=O`
Result: 0.279 µM

Query: Okay, and `CC(=O)[CH-]C(=O)c1ccccc1.CC(=O)[CH-]C(=O)c1ccccc1.CCN(CC)CC[O-].CCN(CC)CC[O-].Cl.[Ti+4]` ?
Result: 38.3 µM

Query: Okay, and `O=[N+]([O-])c1ccc(Sc2ncccn2)c([N+](=O)[O-])c1` ?
Result: 1.89 µM

Query: Okay, and Cc1ccc(S(=O)(=O)NC(CCC(=O)Nc2ccc(Cl)cc2)C(=O)Nc2ccc(Cl)cc2)cc1 (stereo unspecified) ?
Result: 0.826 µM

Query: Okay, and O=C(CCCc1c[nH]c2ccccc12)NC1CC(=O)c2c(Br)sc(Br)c21 (stereo unspecified) ?
Result: 4.37 µM

* * *

System: MALME-3M melanoma
TEST: NCI tumour cell line growth inhibition, 48 h
VALUE KIND: TGI

Illustrative cases are given below, each with its answer.
1. C[C@@H](c1ccc2nccn2c1)n1nnc2ncc(-c3cnn(C)c3)nc21 :: > 100 µM
2. O=C(Nc1n[nH]c2nc(-c3ccco3)c(Br)cc12)C1CC1 :: > 25 µM

Moving on to the next molecule.
Query: What value of TGI has been recorded for this entry: `Cn1nc(-c2ccccc2NC(=O)C(F)(F)F)c(=O)n(C)c1=S`
Result: > 100 µM

* * *

Tested on: RXF 393 renal
TEST: NCI tumour cell line growth inhibition, 48 h
VALUE KIND: TGI

1) ClC(=Nc1cccc2ccccc12)N(c1ccccc1)c1ccccc1 :: > 100 µM
2) Cc1cc(NC(=O)C2c3ccccc3C(=O)N(CC(C)C)C2c2cccs2)no1 (centres undefined) :: > 100 µM
3) C=CC1C2=C(C(=O)NCC2)C2OC(O)C3=C(CCNC3=O)C2C1C (centres undefined) :: > 100 µM

Query: What value of TGI has been recorded for this entry: `O=C(Nc1ccncc1)C(=O)c1cn(S(=O)(=O)c2ccc(Br)cc2)c2ccccc12`
Result: > 100 µM

* * *

Here the recorded TGI is given for each entry.
System: OVCAR-4 ovarian
TEST: NCI tumour cell line growth inhibition, 48 h

Illustrative cases are given below, each with its answer.
1. O=c1[nH]c2cc(C(F)(F)F)ccc2nc1Cc1ccccc1 :: > 100 µM
2. CNNC1=NS(=O)(=O)c2cc(C)c(Cl)cc2S1 :: > 10 µM
3. Cc1ccc(/C=C2\CN(C)CC3C(c4ccc(C)cc4)=C(C#N)C(=O)NC23)cc1 (centres undefined) :: > 50 µM

Query: Any idea what TGI came out for N[C@H]1C2C3CC4C5CC(C42)C1(c1ccccc1)C53 (some centres undefined) on OVCAR-4 ovarian?
Result: > 100 µM

* * *

Test system: HCT-116 colon
TEST: NCI tumour cell line growth inhibition, 48 h; in the data active means GI50 below about 0.43 µM; inactive means the rest
Form entry, call: pick from active, inactive

1) O/N=C1\CCc2cc(-c3nc(C4CCNCC4)[nH]c3-c3ccncc3)ccc21 :: inactive
2) O=C(c1cccs1)c1c(C(F)(F)F)n([O-])c2ccc(C(F)(F)F)cc2[n+]1=O :: active
3) O=C(Nc1n[nH]c2nc(-c3ccco3)c(Br)cc12)C1CC1 :: inactive
4) COc1cc[nH]c1/C=C1\C(=O)Nc2ccc(F)c(C#C[C@@H](O)[C@@H](N)[C@@H](C)O)c21 :: active
5) CCOC(=O)/N=c1\ss/c(=N\C(=S)N(C)C)n1-c1ccccc1 :: inactive

Query: Call for entry `COc1ccc(N(C)c2nc(C)nc3ccccc23)cc1` :
Result: active

Query: Okay, and Cc1cc(NC(=O)C2c3ccccc3C(=O)N(CC(C)C)C2c2cccs2)no1 (centres undefined) ?
Result: inactive

Query: Okay, and `O=C1/C(=C\c2ccc(Cl)cc2)CN(C(=S)Nc2ccccc2)C/C1=C\c1ccc(Cl)cc1` ?
Result: active

Query: Okay, and `C[C@@H](c1ccc2nccn2c1)n1nnc2ncc(-c3cnn(C)c3)nc21` ?
Result: inactive

* * *

Tested on: SK-MEL-5 melanoma
TEST: NCI tumour cell line growth inhibition, 48 h; in the data active means GI50 below about 0.43 µM; inactive means the rest
Form entry, call: pick from true (1) (active), false (0) (inactive)

Completed entries (count: 6):
1) Nc1cccc2c1C(=O)N(C1CCC(=O)NC1=O)C2=O (stereo not given) :: false (0)
2) COc1ccc(N(C)c2nc(C)nc3ccccc23)cc1 :: true (1)
3) COc1cc2cc(Oc3ccc(NC(=O)Nc4cccc(C(F)(F)F)c4)cc3)c(C)nc2cc1OCCN1CCCCC1 :: false (0)
4) O=C(Nc1ccncc1)C(=O)c1cn(S(=O)(=O)c2ccc(Br)cc2)c2ccccc12 :: false (0)
5) CCOC(=O)CCC(NC(=O)c1ccc(N=Cc2nc3cc(C(F)(F)F)ccc3nc2-c2ccccc2)cc1)C(=O)OCC (stereo not given) :: false (0)
6) COc1ccc(-c2cc(-c3ccc(Nc4nc(Nc5ccc(Cl)cc5)nc(Nc5ccc(Cl)cc5)n4)cc3)nc(N)c2C#N)cc1 :: false (0)

Query: Call for entry `COC(=O)[C@]12CC[C@@H](C)[C@H](C)[C@@H]1C1=CC[C@@H]3[C@@]4(C)CC(=O)[C@H](O)[C@@]5(C)COC(=C45)C[C@@]3(C)[C@]1(C)CC2` :
Result: false (0)

Query: Okay, and Cc1ccc(S(=O)(=O)NC(CCC(=O)Nc2ccc(Cl)cc2)C(=O)Nc2ccc(Cl)cc2)cc1 (stereo not given) ?
Result: true (1)

Query: Okay, and COc1cc2c(cc1OC)C(=O)C(Br)CC2 (stereo not given) ?
Result: false (0)

Query: Okay, and `COc1ccc(/C(=C/c2cc(OC)c(OC)c(OC)c2)[N+](=O)[O-])cc1` ?
Result: false (0)

* * *

Here the recorded TGI is given for each entry.
Tested on: EKVX NSCLC
TEST: NCI tumour cell line growth inhibition, 48 h

1) C=CC1C2=C(C(=O)NCC2)C2OC(O)C3=C(CCNC3=O)C2C1C (configuration not stated) :: > 100 µM
2) N#C/C(=C1\N=C(c2ccccc2O)Oc2ccccc21)c1ccc([N+](=O)[O-])cc1 :: > 100 µM
3) O=S(=O)(O)CS(=O)(=O)OCCCl :: > 100 µM

Query: What value of TGI has been recorded for this entry: `CCOc1cc(/C=N\N(C)C)cc(/C=N\N(C)C)c1O`
Result: > 100 µM

Query: Okay, and `COc1ccc(N(C)c2nc(C)nc3ccccc23)cc1` ?
Result: 40.8 µM

Query: Okay, and `CC1=C(C(=O)Nc2ccccc2)C(c2ccc3c(c2)OCO3)C(C(=O)Nc2ccccc2)=C(C)N1` ?
Result: > 100 µM

Query: Okay, and `CCCCCCCCCCCCc1ccc(C(=O)/C=C/C(=O)O)cc1` ?
Result: 17.1 µM

Query: Okay, and `Cc1cc2nc(N3C(=O)/C(=C/c4cccc([N+](=O)[O-])c4)N=C3c3ccccc3)sc2cc1C` ?
Result: 94.3 µM

Query: Okay, and `O=[N+]([O-])c1ccc(Cl)cc1-n1nc(-c2ccccc2)cc1-c1ccccc1` ?
Result: > 100 µM

* * *

Test system: SK-MEL-2 melanoma
TEST: NCI tumour cell line growth inhibition, 48 h
VALUE KIND: TGI

Illustrative cases are given below, each with its answer.
1. COc1ccc(/C=C2/CCCC/C2=N/O)cc1 :: > 100 µM
2. O=S(=O)(c1ccc(NC(=S)N/N=C/c2ccccc2O)cc1)N1CCCCC1 :: > 100 µM

Moving on to the next compound.
Query: What value of TGI has been recorded for this entry: CC1(C)CC(=O)C2=C(C1)NC(SSC1=C(C#N)C(c3ccccc3)C3=C(CC(C)(C)CC3=O)N1)=C(C#N)C2c1ccccc1 (stereo not drawn)
Result: 49.8 µg/mL

* * *

Tested on: HOP-62 NSCLC
TEST: NCI tumour cell line growth inhibition, 48 h
VALUE KIND: TGI

Query: What value of TGI has been recorded for this entry: `O=C1/C(=C\c2ccc(Cl)cc2)CN(C(=S)Nc2ccccc2)C/C1=C\c1ccc(Cl)cc1`
Result: 0.696 µM

Query: Okay, and `COC(=O)[C@]12CC[C@@H](C)[C@H](C)[C@@H]1C1=CC[C@@H]3[C@@]4(C)CC(=O)[C@H](O)[C@@]5(C)COC(=C45)C[C@@]3(C)[C@]1(C)CC2` ?
Result: 31.1 µM

Query: Okay, and CCCCCCCCCCCCCCCCCCNC(=O)[C@H]1CSC(c2ccc(OC)c(F)c2)N1 (some centres not stated) ?
Result: 5.12 µM

* * *

Test system: NCI-H522 lung
TEST: NCI tumour cell line growth inhibition, 48 h
Here the recorded TGI is given for each entry.

1. COc1cc(N(CCC#N)CCC#N)ccc1/C(N=Nc1ccc(C)cc1)=N/NC(=O)c1cc(Br)ccc1O :: 50.3 µM
2. Cc1cc(NC(=O)C2c3ccccc3C(=O)N(CC(C)C)C2c2cccs2)no1 (stereo not drawn) :: > 100 µM
3. COc1ccc(N(C)c2nc(C)nc3ccccc23)cc1 :: < 0.01 µM

Query: What value of TGI has been recorded for this entry: `C/C(=N\N(C)C)c1sc(-n2nc(-c3ccccc3)cc2-c2ccccc2)nc1C`
Result: > 100 µM

Query: Okay, and `COc1ccc(/C=C2\CN(C(=O)CCN3CCC(=NO)CC3)C/C(=C\c3ccc(OC)cc3)C2=O)cc1` ?
Result: 5.5 µM

Query: Okay, and `COc1cccc(NC(=O)c2sc3nc4c(cc3c2N)CCCC4)c1` ?
Result: > 100 µM

Query: Okay, and O=C(Cc1ccccc1)NN1C(=O)C(Cl)C1c1cccc(O)c1 (stereo not drawn) ?
Result: 23.2 µM
